biological target: humanized development candidate monoclonal antibody IgG4 (hIgG4); assay: Gyrolab, mAb as capture, hIgG4 1000 ng/ml
Rule: measured Av. Resp. below 300 gets satisfied; anything equal to or greater than 300 gets not satisfied.

rabbit anti-human IgG monoclonal antibody clone 11F9 (antibody, V domains shown) VH: QQQLEESGGGLVQPEGSLTLTCIASGFSFSSSHWICWVRQAPGKGLEWIACMSTSSGSTYDANWAKGRFTISKTSSTTVTLQMTSLTAADTATYFCARDVGGSTTYFDLWGPGTLVTVSS VL: AYDMTQTPASVSEPVGGTVTIKCQASQSISNELSWYQQKPGQPPKLLIYRASTLASGVPSRFKGSGSGTQFTLTINGVECADAATYYCQQGYSISNVDNTFGGGTEVVVKG :: satisfied
rabbit anti-human IgG monoclonal antibody clone 2C5 (antibody, V domains shown) VH: QEQLVESGGDLVKPGASLTLTCTASGFSFSSGYYMCWVRQAPGKGLEWIACIYGGALTNTYYATWAKGRFTISKTSSTTVTLQMTSLTAADTATYFCARDLGAAGDAYNLWGPGTLVTVSS VL: ASDMTQTPASVSAAVGGTVTIKCQASESIYSGLAWYQQKPGQPPKLLIFDASDLASGVPSRFKGSRSETEYTLTISDLECADAATYYCQCTDRNSITSYAFGGGTEVVVKG :: satisfied
rabbit anti-human IgG monoclonal antibody clone 16F5 (antibody, V domains shown) VH: QQQLEESGGGLVKPGGTLTLTCKASGIDFSNYYYMCWVRQAPGKGLELIACIYTGSSGSTWYATWAKGRFTISKTSSTTVTLQMTSLTAADTATYFCARDRDVGSLYDSLDLWGQGTLVTVSP VL: AYDMTQTPASVEAAVGGTVTINCQASQSINNWLSWYQQKPGQRPKLLIYQASTLASGVSSRFKGSGSGTHFTLTISDLECADAATYYCQQGWSIDDIDNAFGGGTEVVVKG :: not satisfied

Problem: Input rabbit anti-human IgG monoclonal antibody clone 9E6 (antibody, V domains shown) VH: QSLEESGGDLVKPGASLTLTCKASGFDFSSSYYMCWVRQAPGRLEWIACIYGGGLSNTYYAGWAKGRFTISKTSSTTVTLQMTSLTVADTATYFCARDAGTSGDYLNLWGPGTLVTVSS VL: AVVMTQTASPVSGAVGGTVTINCQASQSISSSYLSWYQQKPGQPPKLLIYGASTLASGVPSRFKGSGSGTQFTLTISGVQCDDAATYYCAYDAYRLSSPDNIFGGGTEVVVKG ; condition: Av. Resp. strictly below 300. Does it hold?
Solution: satisfied

Problem: Input rabbit anti-human IgG monoclonal antibody clone 11G5 (antibody, V domains shown) VH: QSLEESGGDLVKPGASLTLTCTASGFSFSSSYYMCWVRQAPGKRLEWIACIYGGGLSNTYYAGWAKGRFTISKTSSTTVTLQMTSLTAADTATYFCARDATSGDYLNLWGPGTLVTVSS VL: AVVMTQTASPVSGAVGGTVTINCQASQSISASALSWYQQKPGQPPKLLIYAASTLESGVPSRFKGSGSGTQFTLTISGVQCDDAATYYCAYDGYRLSSADNIFGGGTEVVVKG ; condition: Av. Resp. strictly below 300. Does it hold?
Solution: not satisfied

Problem: Input rabbit anti-human IgG monoclonal antibody clone 19B1 (antibody, V domains shown) VH: QEQLVESGGGLVQPEGSLTLTCTASGFSFSDSYYMCWVRQAPGKGLEWIACIYGGTITNTYYASWAKGRFTISKTSSTTVTLQMTSLTAADTATYFCARDLGAAGDAYNLWGPGTLVTVSS VL: ASDMTQTPASVSEPVGGTVTIKCQASENIYSSLAWYQQKPGQPPKLLIYDASNLASGVPSRFSGSGSGTEFTLTISDLECADAATYYCQCTYRSSSSSYAFGGGTEVVVKG ; condition: Av. Resp. strictly below 300. Does it hold?
Solution: satisfied

Hello, the source for this data is patent US20250237662A1, in case you need it.
